We begin with a simple list: items and their reported total protein half-life in vivo.
- Protocol: total protein half-life in vivo (active degradation + dilution); higher = more stable protein
- Experimental Context: wild type E. coli NCM3722; growth: C-lim chemostat; doubling time 6 h

Input Sequence: MPALDLIRPSVTAMRVIASVNADFARELKLPPHIRSLGLISADSDDVTYIAADEATKQAMVEVVYGRSLYAGAAHGPSPTAGEVLIMLGGPNPAEVRAGLDAMIAHIENGAAFQWANDAQDTAFLAHVVSRTGSYLSSTAGITLGDPMAYLVAPPLEATYGIDAALKSADVQLATYVPPPSETNYSAAFLTGSQAACKAACNAFTDAVLEIARNPIQRA
Unit Descriptor: h
total protein half-life in vivo: 5.97

Input Sequence: MIRSMTAYARREIKGEWGSATWEMRSVNQRYLETYFRLPEQFRSLEPVVRERIRSRLTRGKVECTLRYEPDVSAQGELILNEKLAKQLVTAANWVKMQSDEGEINPVDILRWPGVMAAQEQDLDAIAAEILAALDGTLDDFIVARETEGQALKALIEQRLEGVTAEVVKVRSHMPEILQWQRERLVAKLEDAQVQLENNRLEQELVLLAQRIDVAEELDRLEAHVKETYNILKKKEAVGRRLDFMMQEFNRESNTLASKSINAEVTNSAIELKVLIEQMREQIQNIE
Unit Descriptor: h
total protein half-life in vivo: 5.69

Input Sequence: MAHIVTLNTPSREDWLTQLADVVTDPDELLRLLNIDAEEKLLAGRSAKKLFALRVPRSFIDRMEKGNPDDPLLRQVLTSQDEFVIAPGFSTDPLEEQHSVVPGLLHKYHNRALLLVKGGCAVNCRYCFRRHFPYAENQGNKRNWQTALEYVAAHPELDEMIFSGGDPLMAKDHELDWLLTQLEAIPHIKRLRIHSRLPIVIPARITEALVECFARSTLQILLVNHINHANEVDETFRQAMAKLRRVGVTLLNQSVLLRDVNDNAQTLANLSNALFDAGVMPYYLHVLDKVQGAAHFMVSDDEARQIMRELLTLVSGYLVPKLAREIGGEPSKTPLDLQLRQQ
Unit Descriptor: h
total protein half-life in vivo: 1.57
